Where these numbers come from: patent US20190300605A1

- assayedTarget: MAdCAM-IgG1 Fc fusion protein (human)
- Sequence (chain, as listed by the source limits assumed): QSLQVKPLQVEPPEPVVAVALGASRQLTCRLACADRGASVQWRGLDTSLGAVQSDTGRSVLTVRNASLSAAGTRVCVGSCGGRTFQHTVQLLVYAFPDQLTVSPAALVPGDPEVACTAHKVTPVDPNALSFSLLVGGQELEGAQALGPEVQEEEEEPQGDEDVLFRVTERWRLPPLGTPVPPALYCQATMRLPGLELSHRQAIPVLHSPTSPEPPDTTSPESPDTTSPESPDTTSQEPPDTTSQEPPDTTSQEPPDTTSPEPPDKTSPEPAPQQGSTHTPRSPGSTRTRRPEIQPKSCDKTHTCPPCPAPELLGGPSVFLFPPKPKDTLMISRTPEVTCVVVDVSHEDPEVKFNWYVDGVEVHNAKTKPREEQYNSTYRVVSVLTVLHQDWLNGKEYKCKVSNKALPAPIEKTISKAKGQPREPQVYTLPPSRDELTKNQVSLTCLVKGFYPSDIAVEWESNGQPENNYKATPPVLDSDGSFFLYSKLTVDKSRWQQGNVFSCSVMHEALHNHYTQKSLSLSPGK
- testName: cell-based or functional assay
Recorded measurements of Mean IC50, JY cell adhesion to MAdCAM IgG1 Fc fusion, one per entry
recordedMetric: Mean IC50, JY cell adhesion to MAdCAM IgG1 Fc fusion (µg/mL)

[[record]]
binder = "anti-MAdCAM monoclonal antibody 7.26.4 (antibody, human IgG2, kappa, V domains shown, human IgG2 kappa from hybridoma 7.26.4) VH: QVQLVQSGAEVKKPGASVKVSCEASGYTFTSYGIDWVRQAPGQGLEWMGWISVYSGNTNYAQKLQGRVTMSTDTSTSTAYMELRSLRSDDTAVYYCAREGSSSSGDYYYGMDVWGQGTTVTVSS VL: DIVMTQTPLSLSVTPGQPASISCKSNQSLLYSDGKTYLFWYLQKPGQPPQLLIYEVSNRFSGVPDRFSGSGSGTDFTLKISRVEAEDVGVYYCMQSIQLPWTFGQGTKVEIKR"
resultvalue = 0.021

[[record]]
binder = "anti-MAdCAM monoclonal antibody 6.14.2 (antibody, human IgG4, kappa, V domains shown, human IgG4 kappa from hybridoma 6.14.2) VH: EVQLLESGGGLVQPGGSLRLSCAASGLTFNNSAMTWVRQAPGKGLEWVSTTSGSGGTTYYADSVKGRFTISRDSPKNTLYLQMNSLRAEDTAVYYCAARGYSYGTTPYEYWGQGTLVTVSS VL: DIQMTQSPSSLSASVGDRVTITCRASRSISSYLNWYQQKPGKAPKVLIFFVSSLQSGVPSRFSGSGSGTDFTLTISSLQPEDFATYYCQQNYIPPITFGQGTRLEIRR"
resultvalue = 0.011

[[record]]
binder = "anti-MAdCAM monoclonal antibody 9.8.2 (antibody, human IgG4, kappa, V domains shown, human IgG4 kappa from hybridoma 9.8.2) VH: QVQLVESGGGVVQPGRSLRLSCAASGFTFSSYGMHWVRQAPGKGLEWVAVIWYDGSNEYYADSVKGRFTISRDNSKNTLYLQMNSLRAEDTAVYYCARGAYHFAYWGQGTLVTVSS VL: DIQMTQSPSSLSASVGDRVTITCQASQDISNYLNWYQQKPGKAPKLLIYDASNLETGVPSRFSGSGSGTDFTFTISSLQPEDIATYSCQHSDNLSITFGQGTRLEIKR"
resultvalue = 0.02

